- assay_remarks: Solubility of Aβ-binding peptides in organic solvents
- test_settings: Table 11.1; crude peptides for CsA analog coupling; ca. 3-5 mg/0.5-1.0 ml
Peptide text beside a SMILES is read from it. * marks the point of attachment. Fmoc = O=C(OCC1c2ccccc2-c2ccccc21)*; ClZ = O=C(OCc1ccccc1Cl)*
measurement_type: Solubility (solvent in which the peptide is soluble)

1. CC(C)C[C@H](NC(=O)[C@H](CCCCNC(=O)OCc1ccccc1Cl)NC(=O)[C@H](CCC(=O)O)NC(=O)OCC1c2ccccc2-c2ccccc21)C(=O)N[C@H](C(=O)N[C@@H](Cc1ccccc1)C(=O)N[C@@H](Cc1ccccc1)C(N)=O)C(C)C [11.28, Fmoc-EK(2Cl-Cbz)LVFF-NH2] (Fmoc-EK(ClZ)LVFF-NH2)    DMF
2. CC(=O)N[C@@H](CCCCNC(=O)OCc1ccccc1Cl)C(=O)N[C@@H](CC(C)C)C(=O)N[C@H](C(=O)N[C@@H](Cc1ccccc1)C(=O)N[C@@H](Cc1ccccc1)C(=O)O)C(C)C    DMF
3. CC(C)C[C@H](NC(=O)[C@H](CCCCNC(=O)OCc1ccccc1Cl)NC(=O)OCC1c2ccccc2-c2ccccc21)C(=O)N[C@H](C(=O)N[C@@H](Cc1ccccc1)C(=O)N[C@@H](Cc1ccccc1)C(=O)O)C(C)C    DMF

---

- assay_remarks: Solubility of Aβ-binding peptides in organic solvents
- test_settings: Table 11.3; 3-5 mg peptide/0.5-1.0 mL; all free lysines are TFA salts
Peptide text beside a SMILES is read from it. * marks the point of attachment. Acetyl(pyridin-2-yl) = O=C(Cc1ccccn1)*; Alloc = C=CCOC(=O)*
measurement_type: Solubility (solvent in which the peptide is soluble)

1) CC(C)C[C@H](NC(=O)[C@H](CCCCN)NC(=O)Cc1ccccn1)C(=O)N[C@H](C(=O)N[C@@H](Cc1ccccc1)C(=O)N[C@@H](Cc1ccccc1)C(N)=O)C(C)C [11.39, Pyridylacetate-KLVFF-NH2]    DMF
2) CC(C)C[C@H](NC(=O)[C@H](CCCCN)NC(=O)OCC1c2ccccc2-c2ccccc21)C(=O)N[C@H](C(=O)N[C@@H](Cc1ccccc1)C(=O)N[C@@H](Cc1ccccc1)C(N)=O)C(C)C    DMF
3) C=CCOC(=O)NCCCC[C@H](NC(=O)Cc1ccccn1)C(=O)N[C@@H](CC(C)C)C(=O)N[C@H](C(=O)N[C@@H](Cc1ccccc1)C(=O)N[C@@H](Cc1ccccc1)C(=O)N[C@@H](CCCCN)C(N)=O)C(C)C [11.40, Pyiidylacetate-K(Alloc)LVFFK-NH2] ({Acetyl(pyridin-2-yl)}-K(Alloc)LVFFK-NH2)    DMF

Data origin, for the record: patent US6316405A
